Taken from patent US20250304596A1.

- measured on: HiBit-BRG1 fusion protein (Homo sapiens, UniProt P51532)
- Construct: expressed in transfected cells
- Sequence (P51532 whole entry, the tested form may be a part): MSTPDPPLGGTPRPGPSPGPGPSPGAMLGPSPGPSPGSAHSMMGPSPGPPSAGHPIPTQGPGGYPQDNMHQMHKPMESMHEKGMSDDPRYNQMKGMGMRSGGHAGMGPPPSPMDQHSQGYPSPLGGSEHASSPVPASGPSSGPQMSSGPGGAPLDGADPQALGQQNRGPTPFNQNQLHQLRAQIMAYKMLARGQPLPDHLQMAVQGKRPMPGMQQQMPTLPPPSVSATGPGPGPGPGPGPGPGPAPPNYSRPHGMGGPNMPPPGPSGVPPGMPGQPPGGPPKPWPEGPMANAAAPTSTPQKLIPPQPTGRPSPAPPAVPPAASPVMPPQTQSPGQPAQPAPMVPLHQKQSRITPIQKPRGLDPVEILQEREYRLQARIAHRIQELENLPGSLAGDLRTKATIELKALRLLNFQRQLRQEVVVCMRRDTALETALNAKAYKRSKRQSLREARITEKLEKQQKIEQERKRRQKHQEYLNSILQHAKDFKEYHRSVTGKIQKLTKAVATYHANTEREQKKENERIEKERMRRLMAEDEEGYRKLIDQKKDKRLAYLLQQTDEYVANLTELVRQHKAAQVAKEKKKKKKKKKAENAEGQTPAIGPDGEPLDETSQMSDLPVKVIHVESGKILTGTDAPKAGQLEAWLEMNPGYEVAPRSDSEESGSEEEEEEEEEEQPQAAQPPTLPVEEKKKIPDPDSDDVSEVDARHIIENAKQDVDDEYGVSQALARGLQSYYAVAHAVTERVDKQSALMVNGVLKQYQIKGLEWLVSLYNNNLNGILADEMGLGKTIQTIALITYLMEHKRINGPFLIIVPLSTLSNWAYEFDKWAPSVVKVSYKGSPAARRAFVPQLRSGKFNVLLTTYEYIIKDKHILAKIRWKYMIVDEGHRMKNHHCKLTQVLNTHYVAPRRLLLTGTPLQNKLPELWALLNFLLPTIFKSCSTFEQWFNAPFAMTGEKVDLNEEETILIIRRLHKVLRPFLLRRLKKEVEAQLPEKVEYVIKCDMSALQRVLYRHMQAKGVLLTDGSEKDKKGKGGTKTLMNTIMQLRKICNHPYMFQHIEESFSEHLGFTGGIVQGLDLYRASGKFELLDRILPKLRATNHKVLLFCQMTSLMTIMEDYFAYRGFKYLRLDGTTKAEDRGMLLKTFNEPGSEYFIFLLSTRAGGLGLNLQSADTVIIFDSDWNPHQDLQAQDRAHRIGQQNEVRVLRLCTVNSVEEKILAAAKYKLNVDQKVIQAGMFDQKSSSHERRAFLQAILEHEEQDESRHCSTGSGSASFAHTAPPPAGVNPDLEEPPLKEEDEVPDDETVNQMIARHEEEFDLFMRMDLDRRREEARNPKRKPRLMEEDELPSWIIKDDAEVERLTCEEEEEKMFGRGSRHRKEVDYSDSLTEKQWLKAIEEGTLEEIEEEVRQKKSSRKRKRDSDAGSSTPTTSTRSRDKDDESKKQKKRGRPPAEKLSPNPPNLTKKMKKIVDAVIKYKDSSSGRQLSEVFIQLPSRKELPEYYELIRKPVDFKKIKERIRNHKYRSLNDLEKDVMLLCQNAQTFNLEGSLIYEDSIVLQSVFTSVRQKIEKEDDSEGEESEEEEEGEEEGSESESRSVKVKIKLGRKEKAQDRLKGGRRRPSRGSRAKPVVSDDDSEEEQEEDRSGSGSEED
- method description: HiBiT-BRG1 cell-based degradation assay (Nano-Glo HiBiT Lytic Detection, 24 h)
- applied conditions: stable HeLa cell line expressing HiBit-BRG1 and LgBit, read-out: BRG1 HiBit Degradation Maximum (%)
recorded endpoint: Dmax

molecule	measured on	endpoint value
Cc1ncsc1-c1ccc([C@H](C)NC(=O)[C@@H]2C[C@@H](O)CN2C(=O)[C@@H](c2cc(C3CCN(c4cnc(N5CCC(c6sc7nnc(-c8ccccc8O)cc7c6C)CC5)nc4)CC3)no2)C(C)C)cc1 [Compound 100]	HiBit-BRG1 fusion protein (Homo sapiens, UniProt P51532)	> 50%
Cc1ncsc1-c1ccc([C@H](C)NC(=O)[C@@H]2C[C@@H](O)CN2C(=O)[C@@H](c2cc(-c3ccnc(N4CCC(c5sc6nnc(-c7ccccc7O)cc6c5C)CC4)c3)no2)C(C)C)cc1 [Compound 10]	HiBit-BRG1 fusion protein (Homo sapiens, UniProt P51532)	> 75%
Cc1ncsc1-c1ccc([C@H](C)NC(=O)[C@@H]2C[C@@H](O)CN2C(=O)[C@@H](c2cc(-c3ccc(N4CCC(c5sc6nnc(-c7ccccc7O)cc6c5C)CC4)cn3)no2)C(C)C)cc1 [Compound 34]	HiBit-BRG1 fusion protein (Homo sapiens, UniProt P51532)	< 50%
Cc1ncsc1-c1ccc([C@H](C)NC(=O)[C@@H]2C[C@@H](O)CN2C(=O)[C@@H](c2cc(-c3ccc(N4CC(c5sc6nnc(-c7ccccc7O)cc6c5C)C4)nn3)no2)C(C)C)cc1 [Compound 50]	HiBit-BRG1 fusion protein (Homo sapiens, UniProt P51532)	< 50%
Cc1ncsc1-c1ccc([C@H](C)NC(=O)[C@@H]2C[C@@H](O)CN2C(=O)[C@@H](c2cc(-c3cnc(N4CCN(c5cc6nnc(-c7ccccc7O)cc6s5)CC4)nc3)no2)C(C)C)cc1 [Compound 9]	HiBit-BRG1 fusion protein (Homo sapiens, UniProt P51532)	> 75%
